# measurement.target: T1, hIL2-DM-his (human, UniProt P60568 21-153)
# T1 construct: expressed in ExpiCHO-S cells, nickel-column purified; also called hIL-2 mutein containing two point mutations K64G and N90R (with a his-tag); not shown: his-tag
# T1 sequence (P60568 21-153 K84G/N110R): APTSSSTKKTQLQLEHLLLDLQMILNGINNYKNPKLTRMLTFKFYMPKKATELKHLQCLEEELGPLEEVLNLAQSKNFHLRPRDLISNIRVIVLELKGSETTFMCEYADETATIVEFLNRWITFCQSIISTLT
# test.name: BLI ForteBio, Ab on Protein A sensor
Entries and their koff
The figure you give is taken to be in s⁻¹; do not add the unit.

hS4B6-H6K3-hu05 (antibody, V domains shown, H6K3 with heavy chain I48M) VH: QVQLVQSGAEVKKPGATVKISCKVSGDTITAYYLHWVRQAPGQGLEWMGRIDPEDDSTKYAENFKNRVTITADTSTNTAYMELSSLRSEDTAVYYCTTVTFYYSRELRWFAYWGQGTLVTVSS VL: DIVLTQSPATLSLSPGERATLSCQASQDIGNYLSWYQQKPGQAPRLLIYSATSLADGIPARFSGSRSGTDYTLTISSLEPEDFAVYYCLQHYSTPYTFGQGTKLEIK ... 0.0152

Which koff reading was recorded for the binder hS4B6-H6K3-hu08 (antibody, V domains shown, H6K3 with heavy chain N76D; also called H6K3-huis) VH: QVQLVQSGAEVKKPGATVKISCKVSGDTITAYYLHWVRQAPGQGLEWIGRIDPEDDSTKYAENFKNRVTITADTSTDTAYMELSSLRSEDTAVYYCTTVTFYYSRELRWFAYWGQGTLVTVSS VL: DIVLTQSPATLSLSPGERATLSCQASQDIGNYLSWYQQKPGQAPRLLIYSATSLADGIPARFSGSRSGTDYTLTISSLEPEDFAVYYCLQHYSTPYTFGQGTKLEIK ?
0.0207

Proceed to hS4B6-H6K3-hu04 (antibody, V domains shown, H6K3 with heavy chain L34M) VH: QVQLVQSGAEVKKPGATVKISCKVSGDTITAYYMHWVRQAPGQGLEWIGRIDPEDDSTKYAENFKNRVTITADTSTNTAYMELSSLRSEDTAVYYCTTVTFYYSRELRWFAYWGQGTLVTVSS VL: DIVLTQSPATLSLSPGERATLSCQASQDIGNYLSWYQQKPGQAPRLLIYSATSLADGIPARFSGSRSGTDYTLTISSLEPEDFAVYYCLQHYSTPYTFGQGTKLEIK
0.0149

Proceed to hS4B6-H6K3-hu09 (antibody, V domains shown, H6K3 with light chain D56S) VH: QVQLVQSGAEVKKPGATVKISCKVSGDTITAYYLHWVRQAPGQGLEWIGRIDPEDDSTKYAENFKNRVTITADTSTNTAYMELSSLRSEDTAVYYCTTVTFYYSRELRWFAYWGQGTLVTVSS VL: DIVLTQSPATLSLSPGERATLSCQASQDIGNYLSWYQQKPGQAPRLLIYSATSLASGIPARFSGSRSGTDYTLTISSLEPEDFAVYYCLQHYSTPYTFGQGTKLEIK
0.00867
